Tested on: Trichoderma virens ATCC 9645
TEST: growth yield (OD600) with compound + IPBC relative to untreated control; higher = less growth inhibition
RUN CONDITIONS: compound concentration: 100 uM; IPBC concentration: 200 ng/ml; 72 h
Structures can show the parent of a compound that is named as a salt. The whole screen tested about 1,300 compounds, of which about 130 (10%) showed an effect of 50% or more. This excerpt belongs to a sample that is enriched for strong results.
growth yield by entry:
READOUT TYPE: growth yield (%)

[[record]]
compound = "c1ccc2[nH]c(-c3cscn3)nc2c1 [Tiabendazole] + CCCCNC(=O)OCC#CI [3-iodo-2-propynyl butylcarbamate (IPBC)]"
measured_number = 3.36

[[record]]
compound = "O=C1c2c(O)ccc(O)c2C(=O)c2c(NCCNCCO)ccc(NCCNCCO)c21 [Mitoxantrone dihydrochloride] + CCCCNC(=O)OCC#CI [3-iodo-2-propynyl butylcarbamate (IPBC)]"
measured_number = 0

[[record]]
compound = "O=C1c2c(O)cccc2Cc2cccc(O)c21 [Anthralin] + CCCCNC(=O)OCC#CI [3-iodo-2-propynyl butylcarbamate (IPBC)]"
measured_number = 82.4

[[record]]
compound = "CN[C@@H]1C[C@@H](c2ccc(Cl)c(Cl)c2)c2ccccc21 [Indatraline hydrochloride] + CCCCNC(=O)OCC#CI [3-iodo-2-propynyl butylcarbamate (IPBC)]"
measured_number = 79.5

[[record]]
compound = "O=C1c2cccc(O)c2C(=O)c2c(O)cccc21 [1,8-Dihydroxyanthraquinone] + CCCCNC(=O)OCC#CI [3-iodo-2-propynyl butylcarbamate (IPBC)]"
measured_number = 77.2

[[record]]
compound = "NC(=O)c1cccnc1 [Nicotinamide] + CCCCNC(=O)OCC#CI [3-iodo-2-propynyl butylcarbamate (IPBC)]"
measured_number = 101


====

System: Trichoderma virens ATCC 9645
TEST: growth yield (OD600) with compound + IPBC relative to untreated control; higher = less growth inhibition
RUN CONDITIONS: compound concentration: 100 uM; IPBC concentration: 200 ng/ml; 40 h
Counter-ions that a name gives are not always drawn. Hit rate of the full screen: of about 1,300 compounds, about 130 (10%) showed an effect of 50% or more. This excerpt belongs to a sample that is enriched for strong results.
READOUT TYPE: growth yield (%)

[[record]]
compound = "c1ccc(CN(CC2=NCCN2)c2ccccc2)cc1 [Antazoline hydrochloride] + CCCCNC(=O)OCC#CI [3-iodo-2-propynyl butylcarbamate (IPBC)]"
tested_on = "Trichoderma virens ATCC 9645"
measured_number = 82.8

[[record]]
compound = "CC(C)NC[C@H](O)COc1ccc(CC(N)=O)cc1 [(S)-(-)-Atenolol] + CCCCNC(=O)OCC#CI [3-iodo-2-propynyl butylcarbamate (IPBC)]"
tested_on = "Trichoderma virens ATCC 9645"
measured_number = 82.8

[[record]]
compound = "CC(=O)N[C@@H](CC(=O)N[C@@H](CCC(=O)O)C(=O)O)C(=O)O [Spaglumic acid] + CCCCNC(=O)OCC#CI [3-iodo-2-propynyl butylcarbamate (IPBC)]"
tested_on = "Trichoderma virens ATCC 9645"
measured_number = 95.6

[[record]]
compound = "CO[C@H]1/C=C/O[C@@]2(C)Oc3c(C)c(O)c4c(O)c(c(/C=N/N5CCN(C6CCCC6)CC5)c(O)c4c3C2=O)NC(=O)/C(C)=C\\C=C\\[C@H](C)[C@H](O)[C@@H](C)[C@@H](O)[C@@H](C)[C@H](OC(C)=O)[C@@H]1C [Rifapentine] + CCCCNC(=O)OCC#CI [3-iodo-2-propynyl butylcarbamate (IPBC)]"
tested_on = "Trichoderma virens ATCC 9645"
measured_number = 90.2

[[record]]
compound = "CC1=Nc2ccc(Cl)cc2S(=O)(=O)N1 [Diazoxide] + CCCCNC(=O)OCC#CI [3-iodo-2-propynyl butylcarbamate (IPBC)]"
tested_on = "Trichoderma virens ATCC 9645"
measured_number = 97.4

[[record]]
compound = "COC(=O)Nc1nc2cc(C(=O)c3cccs3)ccc2[nH]1 [Nocodazole] + CCCCNC(=O)OCC#CI [3-iodo-2-propynyl butylcarbamate (IPBC)]"
tested_on = "Trichoderma virens ATCC 9645"
measured_number = 107

[[record]]
compound = "CC(C)CC(N(C)C)C1(c2ccc(Cl)cc2)CCC1 (stereo not given) [Sibutramine hydrochloride] + CCCCNC(=O)OCC#CI [3-iodo-2-propynyl butylcarbamate (IPBC)]"
tested_on = "Trichoderma virens ATCC 9645"
measured_number = 76.7

[[record]]
compound = "CN[C@@H]1[C@H](O)[C@H](NC)[C@H]2O[C@@]3(O)C(=O)C[C@@H](C)O[C@H]3O[C@@H]2[C@H]1O [Spectinomycin dihydrochloride] + CCCCNC(=O)OCC#CI [3-iodo-2-propynyl butylcarbamate (IPBC)]"
tested_on = "Trichoderma virens ATCC 9645"
measured_number = 104

[[record]]
compound = "C[C@]12COC(=O)C[C@@H]1CC[C@@H]1[C@@H]2CC[C@@]2(C)[C@H]1CC[C@]2(C)O [Oxandrolone] + CCCCNC(=O)OCC#CI [3-iodo-2-propynyl butylcarbamate (IPBC)]"
tested_on = "Trichoderma virens ATCC 9645"
measured_number = 103

[[record]]
compound = "CCCNC(=O)NS(=O)(=O)c1ccc(Cl)cc1 [Chlorpropamide] + CCCCNC(=O)OCC#CI [3-iodo-2-propynyl butylcarbamate (IPBC)]"
tested_on = "Trichoderma virens ATCC 9645"
measured_number = 93.7


====

Test system: Trichoderma virens ATCC 9645
TEST: growth yield (OD600) with compound + IPBC relative to untreated control; higher = less growth inhibition
RUN CONDITIONS: compound concentration: 100 uM; IPBC concentration: 200 ng/ml; 72 h
Structures can show the parent of a compound that is named as a salt. Among all 1,300 compounds or so, about 130 (10%) showed an effect of 50% or more. The list comes from a sample in which strong results are over-represented; it also holds close analogues and randomly drawn compounds.
READOUT TYPE: growth yield (%)

[[record]]
compound = "Oc1cc(Cl)ccc1Oc1ccc(Cl)cc1Cl [Triclosan] + CCCCNC(=O)OCC#CI [3-iodo-2-propynyl butylcarbamate (IPBC)]"
units_label = "%"
measured_number = 2.2

[[record]]
compound = "CCCCC(=O)O[C@H]1CC[C@H]2[C@@H]3CCc4cc(O)ccc4[C@H]3CC[C@]12C [Estradiol Valerate] + CCCCNC(=O)OCC#CI [3-iodo-2-propynyl butylcarbamate (IPBC)]"
units_label = "%"
measured_number = 92.2

[[record]]
compound = "CO[C@H]1/C=C/O[C@@]2(C)Oc3c(C)c(O)c4c(O)c(c(/C=N/N5CCN(C6CCCC6)CC5)c(O)c4c3C2=O)NC(=O)/C(C)=C\\C=C\\[C@H](C)[C@H](O)[C@@H](C)[C@@H](O)[C@@H](C)[C@H](OC(C)=O)[C@@H]1C [Rifapentine] + CCCCNC(=O)OCC#CI [3-iodo-2-propynyl butylcarbamate (IPBC)]"
units_label = "%"
measured_number = 94.5

[[record]]
compound = "CNCCC(Oc1ccc(C(F)(F)F)cc1)c1ccccc1 (centres undefined) [Fluoxetine hydrochloride] + CCCCNC(=O)OCC#CI [3-iodo-2-propynyl butylcarbamate (IPBC)]"
units_label = "%"
measured_number = 96.9

[[record]]
compound = "CC(=O)[C@@]1(O)CC[C@H]2[C@@H]3C[C@H](C)C4=CC(=O)C=C[C@]4(C)[C@@]3(F)[C@@H](O)C[C@@]21C [Fluorometholone] + CCCCNC(=O)OCC#CI [3-iodo-2-propynyl butylcarbamate (IPBC)]"
units_label = "%"
measured_number = 88.7

[[record]]
compound = "CCC(=O)O[C@]1(C(=O)SCF)[C@H](C)C[C@H]2[C@@H]3C[C@H](F)C4=CC(=O)C=C[C@]4(C)[C@@]3(F)[C@@H](O)C[C@@]21C [Fluticasone propionate] + CCCCNC(=O)OCC#CI [3-iodo-2-propynyl butylcarbamate (IPBC)]"
units_label = "%"
measured_number = 99.6

[[record]]
compound = "Oc1c(Cl)cc(Cl)c2cccnc12 [Chloroxine] + CCCCNC(=O)OCC#CI [3-iodo-2-propynyl butylcarbamate (IPBC)]"
units_label = "%"
measured_number = 1.89

[[record]]
compound = "CC(C)NCC(O)COc1ccc(CCOCC2CC2)cc1 (centres undefined) [Betaxolol hydrochloride] + CCCCNC(=O)OCC#CI [3-iodo-2-propynyl butylcarbamate (IPBC)]"
units_label = "%"
measured_number = 99.4

[[record]]
compound = "CCN1CCCC1CNC(=O)c1cc(S(N)(=O)=O)ccc1OC (centres undefined) [Sulpiride] + CCCCNC(=O)OCC#CI [3-iodo-2-propynyl butylcarbamate (IPBC)]"
units_label = "%"
measured_number = 90.3


====

Test system: Trichoderma virens ATCC 9645
TEST: growth yield (OD600) with compound + IPBC relative to untreated control; higher = less growth inhibition
RUN CONDITIONS: compound concentration: 100 uM; IPBC concentration: 200 ng/ml; 40 h
Counter-ions that a name gives are not always drawn. Among all 1,300 compounds or so, about 130 (10%) showed an effect of 50% or more. The list comes from a sample in which strong results are over-represented; it also holds close analogues and randomly drawn compounds.
READOUT TYPE: growth yield (%)

[[record]]
compound = "O=C(CCCCCCC(=O)Nc1ccccc1)NO [Vorinostat] + CCCCNC(=O)OCC#CI [3-iodo-2-propynyl butylcarbamate (IPBC)]"
readout_type = "growth yield"
measured_number = 107

[[record]]
compound = "NS(=O)(=O)c1cc2c(cc1Cl)N=CNS2(=O)=O [Chlorothiazide] + CCCCNC(=O)OCC#CI [3-iodo-2-propynyl butylcarbamate (IPBC)]"
readout_type = "growth yield"
measured_number = 103

[[record]]
compound = "CC(C)c1nc(CN(C)C(=O)N[C@H](C(=O)N[C@@H](Cc2ccccc2)C[C@H](O)[C@H](Cc2ccccc2)NC(=O)OCc2cncs2)C(C)C)cs1 [Ritonavir] + CCCCNC(=O)OCC#CI [3-iodo-2-propynyl butylcarbamate (IPBC)]"
readout_type = "growth yield"
measured_number = 119

[[record]]
compound = "C[N+]1(C)CCC(OC(=O)C(O)(c2ccccc2)C2CCCC2)C1 (stereo unspecified) [Glycopyrrolate] + CCCCNC(=O)OCC#CI [3-iodo-2-propynyl butylcarbamate (IPBC)]"
readout_type = "growth yield"
measured_number = 101

[[record]]
compound = "CCCCCCCN(CC)CCCC(O)c1ccc(NS(C)(=O)=O)cc1 (stereo unspecified) [Ibutilide fumarate] + CCCCNC(=O)OCC#CI [3-iodo-2-propynyl butylcarbamate (IPBC)]"
readout_type = "growth yield"
measured_number = 85

[[record]]
compound = "Cc1ccc(N(CC2=NCCN2)c2cccc(O)c2)cc1 [Phentolamine hydrochloride] + CCCCNC(=O)OCC#CI [3-iodo-2-propynyl butylcarbamate (IPBC)]"
readout_type = "growth yield"
measured_number = 86.2

[[record]]
compound = "N[C@@H](Cc1cc(I)c(Oc2ccc(O)c(I)c2)c(I)c1)C(=O)O [Liothyronine] + CCCCNC(=O)OCC#CI [3-iodo-2-propynyl butylcarbamate (IPBC)]"
readout_type = "growth yield"
measured_number = 93.1

[[record]]
compound = "O=C(O)C[C@H](O)C[C@H](O)/C=C/c1c(C2CC2)nc2ccccc2c1-c1ccc(F)cc1 [Pitavastatin calcium] + CCCCNC(=O)OCC#CI [3-iodo-2-propynyl butylcarbamate (IPBC)]"
readout_type = "growth yield"
measured_number = 14

[[record]]
compound = "CN1CCN(C(=O)OC2c3nccnc3C(=O)N2c2ccc(Cl)cn2)CC1 (stereo unspecified) [Zopiclone] + CCCCNC(=O)OCC#CI [3-iodo-2-propynyl butylcarbamate (IPBC)]"
readout_type = "growth yield"
measured_number = 91.8

[[record]]
compound = "COc1cnc(NS(=O)(=O)c2ccc(N)cc2)nc1 [Sulfameter] + CCCCNC(=O)OCC#CI [3-iodo-2-propynyl butylcarbamate (IPBC)]"
readout_type = "growth yield"
measured_number = 101

[[record]]
compound = "CC(C)c1c(C(=O)Nc2ccccc2)c(-c2ccccc2)c(-c2ccc(F)cc2)n1CC[C@@H](O)C[C@@H](O)CC(=O)O [Atorvastatin] + CCCCNC(=O)OCC#CI [3-iodo-2-propynyl butylcarbamate (IPBC)]"
readout_type = "growth yield"
measured_number = 69.3

[[record]]
compound = "CC(C)n1c(/C=C/C(O)CC(O)CC(=O)O)c(-c2ccc(F)cc2)c2ccccc21 (stereo unspecified) [Fluvastatin sodium salt] + CCCCNC(=O)OCC#CI [3-iodo-2-propynyl butylcarbamate (IPBC)]"
readout_type = "growth yield"
measured_number = 13.8

[[record]]
compound = "Cc1cccn2c(=O)c(-c3nnn[nH]3)cnc12 [Pemirolast potassium] + CCCCNC(=O)OCC#CI [3-iodo-2-propynyl butylcarbamate (IPBC)]"
readout_type = "growth yield"
measured_number = 72.7

[[record]]
compound = "Cc1ncc(CO)c(CO)c1O [Pyridoxine hydrochloride] + CCCCNC(=O)OCC#CI [3-iodo-2-propynyl butylcarbamate (IPBC)]"
readout_type = "growth yield"
measured_number = 79.6

[[record]]
compound = "CC(NCCC(c1ccccc1)c1ccccc1)c1ccccc1 (stereo unspecified) [Fendiline hydrochloride] + CCCCNC(=O)OCC#CI [3-iodo-2-propynyl butylcarbamate (IPBC)]"
readout_type = "growth yield"
measured_number = 70.4

[[record]]
compound = "CN(CCOc1ccc(NS(C)(=O)=O)cc1)CCc1ccc(NS(C)(=O)=O)cc1 [Dofetilide] + CCCCNC(=O)OCC#CI [3-iodo-2-propynyl butylcarbamate (IPBC)]"
readout_type = "growth yield"
measured_number = 88.8

[[record]]
compound = "C=CCC1(CC(C)C)C(=O)NC(=O)NC1=O [Butalbital] + CCCCNC(=O)OCC#CI [3-iodo-2-propynyl butylcarbamate (IPBC)]"
readout_type = "growth yield"
measured_number = 85.6

[[record]]
compound = "Oc1cc(Cl)ccc1Oc1ccc(Cl)cc1Cl [Triclosan] + CCCCNC(=O)OCC#CI [3-iodo-2-propynyl butylcarbamate (IPBC)]"
readout_type = "growth yield"
measured_number = 3.02

[[record]]
compound = "CC(=O)N(CC(C)C(=O)O)c1c(I)cc(I)c(N)c1I (stereo unspecified) [Iocetamic acid] + CCCCNC(=O)OCC#CI [3-iodo-2-propynyl butylcarbamate (IPBC)]"
readout_type = "growth yield"
measured_number = 107

[[record]]
compound = "CCN(CC)C(=O)N1CCN(C)CC1 [Diethylcarbamazine citrate] + CCCCNC(=O)OCC#CI [3-iodo-2-propynyl butylcarbamate (IPBC)]"
readout_type = "growth yield"
measured_number = 83.4

[[record]]
compound = "C[C@H](CCC(=O)O)[C@H]1CC[C@H]2[C@@H]3[C@@H](O)C[C@@H]4C[C@H](O)CC[C@]4(C)[C@H]3CC[C@]12C [Urosiol] + CCCCNC(=O)OCC#CI [3-iodo-2-propynyl butylcarbamate (IPBC)]"
readout_type = "growth yield"
measured_number = 104

